Experimental system: T1, Human ANGPTL4(26-406)-FLAG-His6-Avi (human, UniProt Q9BY76 24-406, biotin on the C-terminal Avi tag (BirA) where the protein is immobilised)
T1 construct: the text calls it 20 amino acids), then QP, ANGPTL4 26-406 and FLAG-His6-Avi; the signal peptide is left out here; also called full length human ANGPTL4; hANGPTL4
T1 sequence: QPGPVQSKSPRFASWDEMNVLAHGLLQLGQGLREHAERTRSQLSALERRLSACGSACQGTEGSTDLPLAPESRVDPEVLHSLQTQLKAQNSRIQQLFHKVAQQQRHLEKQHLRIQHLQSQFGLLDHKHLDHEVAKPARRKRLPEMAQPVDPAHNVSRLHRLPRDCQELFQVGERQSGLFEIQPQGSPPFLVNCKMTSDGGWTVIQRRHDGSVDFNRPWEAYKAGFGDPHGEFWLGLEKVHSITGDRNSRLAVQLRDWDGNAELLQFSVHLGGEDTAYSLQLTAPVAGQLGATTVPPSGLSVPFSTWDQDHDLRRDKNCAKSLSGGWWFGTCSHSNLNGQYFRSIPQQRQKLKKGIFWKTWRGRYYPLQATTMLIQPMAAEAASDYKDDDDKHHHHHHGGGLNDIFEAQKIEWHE
Assay summary: Octet (ForteBio) kinetics, biotinylated antigen on streptavidin sensor, IgG in solution
Measured kon, listed per entry.
Write the answer as a number in M⁻¹ s⁻¹, unit excluded.

Below: 2 binders and their reported kon.
For NEG278 (antibody, human IgG1, kappa, V domains shown, humanized, hIgG1/kappa, parental antibody 19C16) VH: QVQLVQSGAEVKKPGASVKVSCKASAYTFTSSWMQWVRQAPGQGLEWMGEIDPSDNYANYNQKFQGRVTLTVDTSTSTAYMELSSLRSEDTAVYYCASGSYFSNFFDYWGQGTLVTVSS VL: EIVMTQSPATLSVSPGERATLSCKASQDIGSNLNWLQQKPGQAPRRLIYAASVREPGIPARFSGSRSGSEYTLTISSLQSEDFAVYYCLQYASSPWTFGQGTKVEIKR , what is its reported kon? 300000

For NEG313 (antibody, human IgG1, kappa, V domains shown, humanized, hIgG1/kappa, parental antibody 37P1) VH: QVQLVQSGAEVKKPGASVKVSCKASGYTFNNYWITWVRQAPGQGLEWMGDFYPGGGSTNYNAKLQGRVTLTVDTSTSTAYMELRSLRSDDTAVYYCARSPPQVAPFDYWGQGTLVTVSS VL: DIQMTQSPSSLSASVGDRVTITCQASDYIYHWLGWYQQKPGKAPKLLISGASGLETGVPSRFSGSGSGKDYTFTISSLQPEDIATYYCQQYWSTPWTFGQGTKLEIKR , what is its reported kon? 280000

New cases:
For NEG319 (antibody, human IgG1, kappa, V domains shown, humanized, hIgG1/kappa, parental antibody 14P18) VH: QVQLVQSGAEVKKPGASVKVSCKASGYTFTSFWITWVRQAPGQGLEWMGDIYPGGANTNYNEKLQGRVTLTVDTSTSTAYMELRSLRSDDTAVYYCARSPPQVGPFDYWGQGTLVTVSS VL: DIQMTQSPSSLSASVGDRVTITCQASEYIINWLAWYQQKPGKAPKLLISGATGLETGVPSRFSGSGSGKDYTFTISSLQPEDIATYYCQQYWSIPWTFGQGTKLEIKR , what is its reported kon? 280000
